Where do these numbers come from? They come from patent US10517889B2.

Tested on: human SMAD7 mRNA
Assay: Dose-dependent inhibition of human SMAD7 mRNA expression in Hep3B cells (Example 3, Study 1 and 2)
Assay type: cell-based
Conditions: 20000.0 nM, electroporation, approximately 16 hours, Study 2
Strand notation (5' to 3'): a small letter for the sugar, then the base; units joined by * are phosphorothioate-linked, units joined directly phosphodiester-linked; [ ] holds rarer units or linkages, { } end groups; capitals alone tell only the bases. k = constrained ethyl (cEt); [5mC] = 5-methylcytosine; d = 2'-deoxy (DNA)
Readout kind: % inhibition of SMAD7 mRNA expression (%)

799631 (k[5mC]*k[5mC]*kA*dA*dA*dT*d[5mC]*dA*d[5mC]*dA*dA*dA*dG*k[5mC]*kA*kG; antisense) [compound 799631]; 88
799486 (antisense k[5mC]*kA*kT*dA*dA*dT*dG*dA*d[5mC]*dT*dT*dA*dT*k[5mC]*k[5mC]*kA) [compound 799486]; 88
799556 (kA*k[5mC]*kA*dA*d[5mC]*dA*dA*dT*dG*d[5mC]*dT*d[5mC]*dT*kG*kG*k[5mC]; antisense) [compound 799556]; 71

====

Test system: human SMAD7 mRNA
Test: Antisense inhibition of human SMAD7 mRNA expression in Hep3B cells by 3-10-3 cEt gapmers, 10,000 nM, electroporation (Example 2)
Format: cell-based
Details: Hep3B cells, electroporation with 10,000 nM antisense oligonucleotide, approximately 24 hours, RTS5062, percent inhibition of SMAD7 mRNA relative to untreated control cells
Strand notation (5' to 3'): a small letter for the sugar, then the base; units joined by * are phosphorothioate-linked, units joined directly phosphodiester-linked; [ ] holds rarer units or linkages, { } end groups; capitals alone tell only the bases. k = constrained ethyl (cEt); [5mC] = 5-methylcytosine; d = 2'-deoxy (DNA)
Tag: TRUE if measured % Inhibition is not below 50%, FALSE if it is.

799591 (kA*kT*kT*dA*dG*dT*dA*dA*dA*dT*d[5mC]*dA*dA*kG*kA*kG; antisense) [compound 799591]; TRUE
799744 (antisense kA*kA*kA*dG*dA*dA*dA*dA*dT*dG*dG*d[5mC]*d[5mC]*kT*kA*k[5mC]) [compound 799744]; FALSE
799569 (k[5mC]*kT*k[5mC]*dT*dA*dG*dG*dT*d[5mC]*d[5mC]*d[5mC]*dT*d[5mC]*kT*kT*kT; antisense) [compound 799569]; FALSE
799825 (antisense kG*kA*k[5mC]*dT*dT*dG*dG*d[5mC]*dA*dG*d[5mC]*d[5mC]*dA*kA*kG*k[5mC]) [compound 799825]; FALSE
799805 (k[5mC]*kG*kA*dG*dA*dA*dG*dA*dG*dT*dA*dA*dT*kT*k[5mC]*kA; antisense) [compound 799805]; FALSE
799668 (antisense kG*kA*k[5mC]*dA*dG*dA*dT*dG*d[5mC]*d[5mC]*dA*dG*d[5mC]*kA*kA*kG) [compound 799668]; TRUE
799745 (antisense kG*kG*k[5mC]*dA*dG*dT*dT*dA*dA*d[5mC]*dA*dT*dT*kT*k[5mC]*kA) [compound 799745]; FALSE
799553 (k[5mC]*k[5mC]*k[5mC]*d[5mC]*dG*d[5mC]*dT*dA*dG*dG*dG*dA*dA*k[5mC]*kA*kA; antisense) [compound 799553]; FALSE
799276 (antisense kG*kG*k[5mC]*dA*dG*d[5mC]*d[5mC]*dA*dG*dT*dT*dA*dA*kT*k[5mC]*kA) [compound 799276]; FALSE
799583 (kA*kA*kG*dA*d[5mC]*dA*dA*dA*d[5mC]*d[5mC]*dT*dT*d[5mC]*k[5mC]*kG*kA; antisense) [compound 799583]; TRUE
799841 (antisense kA*kA*kA*dG*dA*dA*dT*dG*dG*dT*dG*dG*dG*kT*kG*k[5mC]) [compound 799841]; FALSE
799318 (antisense kG*kT*kG*dG*dA*dT*dT*dT*dG*dA*dA*dA*dA*kG*kG*kG) [compound 799318]; TRUE
799723 (antisense kA*kG*k[5mC]*d[5mC]*dA*dA*d[5mC]*d[5mC]*d[5mC]*dT*dG*dG*d[5mC]*kA*k[5mC]*k[5mC]) [compound 799723]; FALSE
799291 (antisense kG*k[5mC]*kT*dG*dA*dT*dT*dA*dT*dT*dA*dA*dT*kG*kG*kT) [compound 799291]; FALSE
799273 (antisense kA*kT*k[5mC]*dA*dT*dT*dA*d[5mC]*dT*d[5mC]*dG*dA*dG*kT*k[5mC]*kA) [compound 799273]; FALSE
799279 (antisense kA*k[5mC]*k[5mC]*dT*dT*dG*dT*d[5mC]*dA*d[5mC]*d[5mC]*d[5mC]*dG*kT*k[5mC]*kT) [compound 799279]; FALSE
799545 (kT*k[5mC]*k[5mC]*d[5mC]*dA*d[5mC]*d[5mC]*d[5mC]*dT*dG*dG*dT*dG*k[5mC]*kT*k[5mC]; antisense) [compound 799545]; FALSE
799669 (antisense kT*kA*kT*dG*dA*d[5mC]*dA*dG*dA*dT*dG*d[5mC]*d[5mC]*kA*kG*k[5mC]) [compound 799669]; TRUE
799525 (antisense kA*kG*kG*dT*dT*dT*dG*dG*dG*dT*dT*dG*dG*kA*k[5mC]*kT) [compound 799525]; FALSE
799315 (antisense k[5mC]*kA*k[5mC]*d[5mC]*dA*dA*dG*dA*dT*d[5mC]*d[5mC]*dA*dT*k[5mC]*kT*kT) [compound 799315]; FALSE
799689 (antisense kT*kG*k[5mC]*dT*dA*d[5mC]*dA*dG*dT*dG*dT*d[5mC]*dA*k[5mC]*k[5mC]*kA) [compound 799689]; TRUE
799705 (antisense kA*kA*k[5mC]*dT*dT*dA*dA*dA*dA*dT*dG*dT*dG*k[5mC]*k[5mC]*kA) [compound 799705]; FALSE
